Entries and their log10(IC50)
biological target: Small conductance calcium-activated potassium channel (Rattus norvegicus, UniProt P70604+P70606+P70605); assay: The blocking of apamin-sensitive [Ca2+]-activated K+ (SKCa) channel was assessed by the compounds ability to inhibit the after-hyperpolarization in cultured rat superior cervical ganglion neurons; format: functional
measured parameter: log10(IC50) (log10 of the value in nM)

>>> print(df.to_string())
                                    compound  measured_parameter  experimental_value
 0  c1ccc2c(c1)c1cc[n+]2Cc2ccc(cc2)C[n+]2ccc(c3ccccc32)NCc2ccc(cc2)CN1         log10(IC50)                1.45
 1  c1ccc2c(c1)c1cc[n+]2Cc2ccc(cc2)Cc2ccc(cc2)C[n+]2ccc(c3ccccc32)NCc2ccc(cc2)-c2ccc(cc2)CN1         log10(IC50)                2.45
 2  C1=C\c2ccc(cc2)C[n+]2ccc(c3ccccc32)NCCCCCCCCCCNc2cc[n+](c3ccccc23)Cc2ccc/1cc2         log10(IC50)                2.18
 3  COc1c2cccc1C[n+]1ccc(c3ccccc31)NCc1ccc(cc1)CNc1cc[n+](c3ccccc13)C2         log10(IC50)                1.40
 4  c1ccc2c(c1)c1cc[n+]2Cc2ccc(cc2)CCc2ccc(cc2)C[n+]2ccc(c3ccccc32)NCCCCCCCCCCN1         log10(IC50)                2.26
 5  c1ccc2c(c1)c1cc[n+]2CCCCCCCCCC[n+]2ccc(c3ccccc32)NCc2ccc(cc2)-c2ccc(cc2)CN1         log10(IC50)                2.32
 6  Nc1cc[n+](Cc2ccc(-c3ccc(C[n+]4ccc(N)c5ccccc54)cc3)cc2)c2ccccc12         log10(IC50)                2.58
 7  c1ccc2c(c1)c1cc[n+]2Cc2ccc(cc2)-c2ccc(cc2)C[n+]2ccc(c3ccccc32)NCc2ccc(cc2)-c2ccc(cc2)CN1         log10(IC50)                2.63
 8  Nc1cc[n+](Cc2ccc(CCc3ccc(C[n+]4ccc(N)c5ccccc54)cc3)cc2)c2ccccc12         log10(IC50)                2.61
 9  Oc1c2cc(I)cc1C[n+]1ccc(c3ccccc31)NCc1ccc(cc1)CNc1cc[n+](c3ccccc13)C2         log10(IC50)                2.00
10  Nc1cc[n+](Cc2ccc(-c3cccc(-c4ccc(C[n+]5ccc(N)c6ccccc65)cc4)n3)cc2)c2ccccc12         log10(IC50)                2.56
11  Cc1cc(N)c2ccccc2[n+]1CCCCCCCCCC[n+]1c(C)cc(N)c2ccccc21.[Cl-].[Cl-] [DEQUALINIUM CHLORIDE]         log10(IC50)                2.81
12  Nc1cc[n+](Cc2ccc3c(c2)Cc2cc(C[n+]4ccc(N)c5ccccc54)ccc2-3)c2ccccc12         log10(IC50)                2.49
13  Nc1cc[n+](Cc2cccc(-c3cccc(C[n+]4ccc(N)c5ccccc54)c3)c2)c2ccccc12         log10(IC50)                2.46
14  c1ccc2c(c1)c1cc[n+]2Cc2ccc(cc2)-c2ccc(cc2)C[n+]2ccc(c3ccccc32)NCCCCCCCCCCN1         log10(IC50)                2.23
